Every entry's value here was drawn from paper PMC10934055.

# tgt: α-Glucosidase (Saccharomyces cerevisiae, UniProt P53341)
# Construct: purchased Sigma (Sigma-Aldrich) G5003
# Sequence (P53341 whole entry): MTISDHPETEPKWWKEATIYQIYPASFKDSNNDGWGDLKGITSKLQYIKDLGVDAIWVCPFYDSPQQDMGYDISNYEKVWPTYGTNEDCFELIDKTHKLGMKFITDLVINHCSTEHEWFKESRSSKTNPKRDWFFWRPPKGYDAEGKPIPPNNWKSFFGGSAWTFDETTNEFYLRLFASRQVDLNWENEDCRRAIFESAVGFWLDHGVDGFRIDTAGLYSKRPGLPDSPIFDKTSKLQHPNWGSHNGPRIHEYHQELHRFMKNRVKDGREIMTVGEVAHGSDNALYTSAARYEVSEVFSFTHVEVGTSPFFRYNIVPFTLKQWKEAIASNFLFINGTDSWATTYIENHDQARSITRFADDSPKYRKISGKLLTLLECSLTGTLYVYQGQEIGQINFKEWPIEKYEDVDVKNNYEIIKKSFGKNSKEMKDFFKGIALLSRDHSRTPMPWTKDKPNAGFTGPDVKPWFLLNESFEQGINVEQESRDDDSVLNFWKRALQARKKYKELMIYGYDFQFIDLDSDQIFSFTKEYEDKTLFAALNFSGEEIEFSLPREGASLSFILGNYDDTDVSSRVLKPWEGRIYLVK
# run-description: biochemical;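 further: yeast α-glucosidase premixed with inhibitor in phosphate buffer for 15 min at 37 °C, then a further 15 min reaction with p-NPG substrate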
# assay-conditions: concentration 6.0 μg·mL-1; read-out: α-glucosidase inhibition rate
The entries below are paired with their reported inhibition at 6 µg/mL.

Some compounds with known inhibition at 6 µg/mL results, for comparison:
# compound, obs-value
data = [
    ("CC(C)(O)[C@@H]1CC[C@]2(C)CC[C@]3(C)[C@H](CC[C@@H]4[C@@]5(C)CC[C@H](O)C(C)(C)[C@@H]5CC[C@]43C)[C@@H]12", "3.4%"),
    ("CC(C)(O)[C@@H]1CC[C@]2(C)CC[C@]3(C)[C@H](CC[C@@H]4[C@@]5(C)CCC(=O)C(C)(C)[C@@H]5CC[C@]43C)[C@@H]12 [Compound 5, 20-hydroxy-lupan-3-one]", "11%"),
    ("CC(=O)O[C@H]1CC[C@]2(C)[C@H]3CC[C@@H]4[C@@H]([C@@](C)(O)CCC=C(C)C)CC[C@@]4(C)[C@]3(C)CC[C@H]2C1(C)C [Compound 8, dammar-24-ene-3β-acetoxy-20S-ol]", "8.1%"),
    ("C=C(C)[C@@H]1CC[C@]2(C)CC[C@]3(C)[C@H](CC[C@@H]4[C@@]5(C)CC[C@H](O)C(C)(C)[C@@H]5CC[C@]43C)[C@@H]12", "38.6%"),
]

-- ask Look up inhibition at 6 µg/mL: C=C(C)[C@@H]1CC[C@]2(C(=O)O)CC[C@]3(C)[C@H](CC[C@@H]4[C@@]5(C)CCC(=O)C(C)(C)[C@@H]5CC[C@]43C)[C@@H]12
-- reply 38.2%
